Tested on: Canavalia ensiformis
Run Description: Inhibition of jack beans alpha-mannosidase
Active and inactive are the calls of the source. No cut-off for these calls is given here.
# output must be one of TRUE = active, FALSE = inactive

Solved cases (6 shown):
Test call, this molecule: CCCCCCCCCCOC[C@H]1NC[C@H](O)[C@@H]1O
FALSE

And what about the molecule CCCCC/C=C\C/C=C\CCCCCCCCOC[C@H]1NC[C@H](O)[C@@H]1O ?
FALSE

And what about the molecule CCCCCCCCCCCCCCCCCCOC[C@H]1NC[C@H](O)[C@@H]1O ?
FALSE

And what about the molecule O[C@H]1[C@@H](O)CN[C@@H]1COCc1ccccc1 ?
FALSE

And what about the molecule O[C@H]1[C@@H](O)CN[C@@H]1COCc1ccc(-c2ccccc2)cc1 ?
TRUE

And what about the molecule CCCCCC/C=C\CCCCCCCCOC[C@H]1NC[C@H](O)[C@@H]1O ?
FALSE

# ---- query molecule ----
Test call, this molecule: CCCCCCCOC[C@H]1NC[C@H](O)[C@@H]1O
FALSE
